# System: glycogen synthase
# testSummary: Glycogen synthase activation in mouse adipocytes
# Assay type: cell-based
# Experimental: 3T3-L1 mouse pre-adipocytes were grown in DMEM medium supplemented with 10% foetal calf serum (FCS) and penicillin/streptomycin until fully confluent. […] HEK293 cells, mouse adipocytes or rat myotubes were treated in 10-cm Petri dishes with different concentrations of GSK3 inhibitor example compounds for 90 minutes. […] The activity of glycogen synthase was determined in the soluble fraction at two different concentrations of […]—low (0.1 mM) and high (10 mM). […]
readoutType: pEC50
Formally, pEC50 is defined as -log10 of the concentration c, with c in mol/L.

Hey, glycogen synthase data for CNc1cc(Nc2nccc(-c3sc(=O)n(C)c3C)n2)cc(C(F)(F)F)c1 [Compound 76] : pEC50 came out at 5.95

====

# measuredOn: CDK2/cyclin A (Homo sapiens, UniProt P24941)
# testSummary: Kinase assay CDK2/cyclin A
# statedConditions: Ki calculated (Cheng-Prusoff) from experimentally determined IC50 and Km,ATP; read-out: Kinase Inhibition Ki CDK2 - cyclin A
readoutType: Ki (nM)
Report only the number, with the unit nM understood.

The recorded Ki for `CC(=O)NCc1ccc(Nc2nccc(-c3sc(=O)n(C)c3C)n2)cc1` is 160

Given item `CCn1c(C)c(-c2ccnc(Nc3ccc(S(=O)(=O)O)cc3)n2)sc1=O` , the value recorded as its Ki is 590

The reported value for `CCn1c(C)c(-c2ccnc(Nc3ccc(N(C)C)cc3)n2)sc1=O` in terms of Ki is 150

Per the record, `Cc1c(-c2ccnc(Nc3ccc(N4CCNCC4)c(Cl)c3)n2)sc(=O)n1C` has Ki of 99

Form field Ki, entry `Cc1c(-c2ccnc(Nc3cccc(CNS(C)(=O)=O)c3)n2)sc(=O)n1C` : 42

Lookup result for `Cc1ccc(Nc2nccc(-c3sc(=O)n(C)c3C)n2)cc1I` ; measured Ki: 840

Record `Cc1c(-c2ccnc(Nc3ccc(S(=O)(=O)NCc4ccccc4)cc3)n2)sc(=O)n1C` . Reported Ki: 650

Form field Ki, entry `Cc1ccc(Nc2nccc(-c3sc(=O)n(C)c3C)n2)cc1N` : 8.6

The recorded Ki for `Cc1c(-c2ccnc(Nc3cccc(O)c3)n2)sc(=O)n1C` is 25

Sure, the documented Ki for `Cc1c(-c2ccnc(Nc3ccc(N4CCOCC4)cc3)n2)sc(=O)n1C` is 170

Noted for `Cc1c(-c2ccnc(Nc3ccc(N(C)C)cc3)n2)sc(=O)n1C` : its Ki reads 200

Ki in this record for `Cc1c(-c2ccnc(Nc3ccc(Cl)c(CO)c3)n2)sc(=O)n1C` : 59

Consider `CCn1c(C)c(-c2ccnc(Nc3ccc(Cl)cc3)n2)sc1=O` . Its measured Ki is 400

Just so you know, measured Ki for `Cc1c(-c2ccnc(Nc3cccc([N+](=O)[O-])c3)n2)sc(=O)n1C` came out at 170

Briefly, Ki measured for `Cc1c(-c2ccnc(Nc3cccc(CNC(=O)c4ccccc4)c3)n2)sc(=O)n1C` : 540

Field Ki (entry `CCn1c(C)c(-c2ccnc(Nc3ccc(OC)nc3)n2)sc1=O` ) reads 760

So, `CCn1c(C)c(-c2ccnc(Nc3cccc([N+](=O)[O-])c3)n2)sc1=O` ? Its Ki was 62

Value of Ki reported for the molecule `Cc1c(-c2ccnc(Nc3ccc(N4CCN(Cc5ccccc5)CC4)cc3)n2)sc(=O)n1C` is 950

Value of Ki reported for the molecule `CCn1c(C)c(-c2ccnc(Nc3ccc(F)cc3)n2)sc1=O` is 52

The molecule `Cc1c(-c2ccnc(Nc3cccc(S(N)(=O)=O)c3)n2)sc(=O)n1C` showed Ki equal to 21

Kindly note the recorded Ki for `Cc1ccc(Nc2nccc(-c3sc(=O)n(C)c3C)n2)cc1C(F)(F)F` , which is 550

molecule `Cc1cc(Nc2nccc(-c3sc(=O)n(C)c3C)n2)ccc1Cl` , Ki observed: 460

// Ki value for `CC(=O)NCc1cccc(Nc2nccc(-c3sc(=O)n(C)c3C)n2)c1` : 220

Sample `CCn1c(C)c(-c2ccnc(Nc3ccc(N4CCOCC4)cc3)n2)sc1=O` ; Ki observed: 2000

The measured Ki associated with `Cc1c(-c2ccnc(Nc3ccc(S(=O)(=O)NCCO)cc3)n2)sc(=O)n1C` reads 2.9

Recorded result, `CC(=O)N1CCN(c2cccc(Nc3nccc(-c4sc(=O)n(C)c4C)n3)c2)CC1` , Ki: 3000

Consider `CCn1c(C)c(-c2ccnc(Nc3ccc(C)c(O)c3)n2)sc1=O` . Its measured Ki is 87

Lab book: Ki of `COc1ccc(Nc2nccc(-c3sc(=O)n(CCC(C)C)c3C)n2)cn1` noted as 190

Form: molecule = `CCn1c(C)c(-c2ccnc(Nc3ccc(Cl)c(C(=O)O)c3)n2)sc1=O` ; Ki = 1100

Note to self: Ki recorded for `Cc1c(-c2ccnc(Nc3ccc(F)c([N+](=O)[O-])c3)n2)sc(=O)n1C` was 21

// `Cc1c(-c2ccnc(Nc3cccc(C#N)c3)n2)sc(=O)n1C` : Ki value = 42

Data point: `Cc1c(-c2ccnc(Nc3cc(N)cc(C(F)(F)F)c3)n2)sc(=O)n1C` ; Ki = 280

Per the records, this molecule ( `CCn1c(C)c(-c2ccnc(Nc3ccc([N+](=O)[O-])cc3)n2)sc1=O` ) has Ki equal to 160

Looking up `Cc1c(-c2ccnc(Nc3ccc(N(C)C)c([N+](=O)[O-])c3)n2)sc(=O)n1C` , I found its Ki recorded as 0.5

Ki recorded for this molecule, `Cc1c(-c2ccnc(Nc3ccc(N4CCNCC4)cc3)n2)sc(=O)n1C` , is 300

// field: Ki; key: `CC(=O)N1CCN(c2ccc(Nc3nccc(-c4sc(=O)n(C)c4C)n3)cc2)CC1` ; value = 180
